study-system: Lysine-specific histone demethylase 1A (Homo sapiens, UniProt O60341)
pIC50: −log10 of the molar value.
outcome-measure: pIC50

>  <structure-string>
O=C(O)c1ccc(CN2CCC(CN[C@H]3C[C@@H]3c3ccccc3)CC2)cc1

>  <obs-value>
6.21

$$$$
